Examples of binders with documented pKd follow.
# target: T1, RSV postfusion F (postF), subtype A (respiratory syncytial virus, subtype A, UniProt P03420 26-513)
# T1 construct: also called F ΔFP; Postfusion subtype A
# experiment_description: BLI, IgG
Note on pKd: it is the negative log10 of concentration, concentration in mol/L.

Below, 2 binders whose answers are already recorded.
>>> measured_result("ADI-14606 (antibody, V domains shown) VH: QVQLVQSGGGLVQPGGSLRLSCAASGFTVSSNYMGWVRQAPGKGLEWVSVIYTGGSTYYADSVKGRFTISRDNFKNTLYLQMNSLRAEDTALYYCARDLYSSGWFGYWGQGTLVTVSS VL: DIRLTQSPATLSVSPGERATLSCRASQSVSINLGWFQQKPGQSPRLLIYGTSTRATGIPARFSGSGSGTEFTLTISSLQSEDFAVYYCHQYNNWPYTFGQGTKVEIK")
8.89
>>> measured_result("ADI-21007 (antibody, V domains shown) VH: QVQLVQSGADVKKPGASVKVSCKSSGYTFSNHSMHWVRQAPGQGLEWMGRIHPSSGTTTYAQKFQGRVTMTRDTSTSTVYMEVSSLRSEDTAVYYCARSPFFDFDFWGQGTMVTVSS VL: SYVLTQPHSVSESPGKTVTISCTRSSGSIASNYVQWYQQRPGSAPTSVIYEDNQRPSGVPDRFSGSIDSTSNSASLTISGLKTEDEADYYCQSYYSSGWVFGGGTKLTVL")
9.77

Consider now this further binder.
[in] Would you kindly share the measured pKd for ADI-21047 (antibody, V domains shown) VH: QVQLQQWGAGLLKPSETLSLTCAVYGGSFSGKYWSWIRQPPGKGLEWIGEFNHDGTTYYNPSLKSRVTISADTPKNQFSLTLHSVTAADTAVYYCARLTILSDWGQGTLVTVSS VL: DIRMTQSPSSLSASVGDRVTITCQASQDISNYLHWYQQKPGKAPKLLIYDASNLETGVPSRFSGSGSGTDFTFTIHSLQPEDLATYYCQQYYDLPRTFGQGTKLEIK ?
[out] 9.54
